All values here come from patent US7709475B2.

Recorded measurements of IC50, one per entry
- target.or.test.system: cyclin D2-Cdk4 (Homo sapiens, UniProt P11802)
- Sequence (P11802 whole entry): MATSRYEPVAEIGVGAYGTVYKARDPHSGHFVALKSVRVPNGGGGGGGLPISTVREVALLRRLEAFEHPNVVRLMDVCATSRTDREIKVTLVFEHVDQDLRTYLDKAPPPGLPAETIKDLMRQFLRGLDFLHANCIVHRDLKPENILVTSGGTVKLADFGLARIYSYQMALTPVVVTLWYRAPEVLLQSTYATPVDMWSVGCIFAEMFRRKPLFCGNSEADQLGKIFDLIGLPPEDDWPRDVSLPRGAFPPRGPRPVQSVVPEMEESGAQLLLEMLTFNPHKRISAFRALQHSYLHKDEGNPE
- Sequence (P30279 whole entry partner): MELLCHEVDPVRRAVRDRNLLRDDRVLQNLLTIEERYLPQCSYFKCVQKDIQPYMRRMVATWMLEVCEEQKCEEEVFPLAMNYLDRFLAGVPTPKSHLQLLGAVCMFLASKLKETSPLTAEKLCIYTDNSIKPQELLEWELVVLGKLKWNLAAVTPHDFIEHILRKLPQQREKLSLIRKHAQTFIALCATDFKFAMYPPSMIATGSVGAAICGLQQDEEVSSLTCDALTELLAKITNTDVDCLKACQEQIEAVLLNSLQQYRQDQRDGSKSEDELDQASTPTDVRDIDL
- test.summary: Cdk4 inhibitory action: cyclin D2-Cdk4 kinase activity, 33P-ATP, RB peptide substrate
- study.conditions: cyclin D2-Cdk4, 50 μM ATP
Just the number in nM, nothing appended.

CNCc1cnc(Nc2ncc(-c3cc(C)nc(Sc4ccccc4Cl)n3)s2)cn1
8.8
Cc1cc(-c2cnc(Nc3cnc(CN4CCN(C)CC4)cn3)s2)nc(OC2CCCCC2)n1
9.2
CCNCc1cnc(Nc2ncc(-c3cc(C)nc(Sc4ccccc4Cl)n3)s2)cn1
5.3
Cc1cc(-c2cnc(Nc3cnc(CN4CC[C@@H](O)C4)cn3)s2)nc(Sc2ccccc2Cl)n1
20
Cc1cc(-c2cnc(Nc3cnc(CN4CCC(N(C)C)C4)cn3)s2)nc(SC2CCCCC2)n1 (stereo not shown)
3.9
Cc1cc(-c2cnc(Nc3ccc(CN4CCC[C@H]4CO)cn3)s2)nc(NC2CCCCC2)n1
7.2

Lookup: Query: IC50; subject: `Cc1cc(-c2cnc(Nc3cnc(CN4CCN(C)CC4)cn3)s2)nc(Sc2ccccc2Cl)n1`
Found: 5.7

Lookup: Query: IC50; subject: `CC(=O)N1CCN(Cc2ccc(Nc3ncc(-c4cc(C)nc(OC5CCCCC5)n4)s3)nc2)CC1`
Found: 9

Lookup: Query: IC50; subject: `Cc1cc(-c2cnc(Nc3cnc(CN(C)CCO)cn3)s2)nc(Sc2ccccc2Cl)n1`
Found: 13

Lookup: Query: IC50; subject: `Cc1cc(-c2cnc(Nc3cnc(CN4CCCC4)cn3)s2)nc(SC2CCCCC2)n1`
Found: 4.2

---

Recorded measurements of log10(IC50), one per entry
- target.or.test.system: T1, cyclin T1-Cdk9 (Homo sapiens, UniProt P50750)
- T1 construct: made in house; host or cells: insect cell Sf9 (baculovirus)
- T1 sequence (P50750 whole entry): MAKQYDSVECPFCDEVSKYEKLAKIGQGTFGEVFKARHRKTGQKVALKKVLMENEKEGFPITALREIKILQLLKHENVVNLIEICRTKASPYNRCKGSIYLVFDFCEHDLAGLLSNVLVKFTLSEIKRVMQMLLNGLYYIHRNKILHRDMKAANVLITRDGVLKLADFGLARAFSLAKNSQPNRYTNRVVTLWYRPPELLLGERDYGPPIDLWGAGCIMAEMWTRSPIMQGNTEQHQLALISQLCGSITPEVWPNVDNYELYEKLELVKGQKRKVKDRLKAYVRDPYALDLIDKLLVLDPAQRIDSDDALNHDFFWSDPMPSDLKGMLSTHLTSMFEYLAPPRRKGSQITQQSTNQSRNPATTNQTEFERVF
- T1 sequence (O60563 whole entry partner): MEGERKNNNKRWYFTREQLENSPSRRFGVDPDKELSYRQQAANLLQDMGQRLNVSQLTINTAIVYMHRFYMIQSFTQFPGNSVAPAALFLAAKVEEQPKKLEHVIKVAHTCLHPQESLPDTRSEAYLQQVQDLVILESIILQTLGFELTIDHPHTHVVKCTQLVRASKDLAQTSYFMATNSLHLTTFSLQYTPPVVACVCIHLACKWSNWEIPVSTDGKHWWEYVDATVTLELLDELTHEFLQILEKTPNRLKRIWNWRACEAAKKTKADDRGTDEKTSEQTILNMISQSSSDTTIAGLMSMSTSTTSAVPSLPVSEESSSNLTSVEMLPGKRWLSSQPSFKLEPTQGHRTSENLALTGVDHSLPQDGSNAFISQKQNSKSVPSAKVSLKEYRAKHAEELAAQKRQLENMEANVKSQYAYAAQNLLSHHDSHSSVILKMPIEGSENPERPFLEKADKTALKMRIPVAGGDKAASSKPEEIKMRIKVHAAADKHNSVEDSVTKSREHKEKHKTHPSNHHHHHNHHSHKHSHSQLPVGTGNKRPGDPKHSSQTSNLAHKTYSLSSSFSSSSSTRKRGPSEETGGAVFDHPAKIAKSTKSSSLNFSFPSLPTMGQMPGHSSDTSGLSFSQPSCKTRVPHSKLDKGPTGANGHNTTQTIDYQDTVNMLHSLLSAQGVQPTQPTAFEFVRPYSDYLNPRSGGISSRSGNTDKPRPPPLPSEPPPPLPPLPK
- test.summary: Cdk9 inhibitory action: cyclin T1-Cdk9 kinase activity
- Assay type: biochemical
- study.conditions: cyclin T1-Cdk9, 50 μM ATP
- Procedure: The cDNA of Cdk9, and the cDNA of a fusion protein of cyclin T1, an activating factor of Cdk9, and glutathione S-transferase, were integrated into a baculovirus expression vector to prepare a recombinant baculovirus. […] The reaction was performed by partially modifying the method of Kitagawa et al. [Oncogene, Vol. 7, 1067-1074 (1992)]. […] The radioactivity of the substrate peptide was measured with a liquid scintillation counter. […]
Scale: decimal log of IC50, IC50 in nM.

Worked examples, 5 molecules total:
Cc1cc(-c2cnc(Nc3cnc(CN4CCC(N(C)C)C4)cn3)s2)nc(SC2CCCCC2)n1 (centres unmarked)
2.43
Cc1cc(-c2cnc(Nc3ccc(CN4CCC[C@H]4CO)cn3)s2)nc(NC2CCCCC2)n1
3.04
CNCc1cnc(Nc2ncc(-c3cc(C)nc(Sc4ccccc4Cl)n3)s2)cn1
2.40
Cc1cc(-c2cnc(Nc3cnc(CN4CCC[C@H]4CO)cn3)s2)nc(Sc2ccccc2Cl)n1
2.51
Cc1cc(-c2cnc(Nc3cnc(CN4CCC(N(C)C)C4)cn3)s2)nc(OC2CCCCC2)n1 (centres unmarked)
2.63

Lookup: Query: log10(IC50); subject: `Cc1cc(-c2cnc(Nc3cnc(CN(C)CCO)cn3)s2)nc(Sc2ccccc2Cl)n1`
Found: 3.20

Lookup: Query: log10(IC50); subject: `Cc1cc(-c2cnc(Nc3cnc(CN4CCCC4)cn3)s2)nc(Sc2ccccc2Cl)n1`
Found: 2.94

Lookup: Query: log10(IC50); subject: `Cc1cc(-c2cnc(Nc3cnc(CN4CCN(C)CC4)cn3)s2)nc(NC2CCCCC2)n1`
Found: 3.15

Lookup: Query: log10(IC50); subject: `Cc1cc(-c2cnc(Nc3cnc(CN4CCN(C)CC4)cn3)s2)nc(OC2CCCCC2)n1`
Found: 3.40

Lookup: Query: log10(IC50); subject: `Cc1cc(-c2cnc(Nc3cnc(CN4CCN(C)CC4)cn3)s2)nc(Sc2ccccc2Cl)n1`
Found: 2.81

Lookup: Query: log10(IC50); subject: `Cc1cc(-c2cnc(Nc3cnc(CN4CCCC4)cn3)s2)nc(SC2CCCCC2)n1`
Found: 2.36

---

Please consider the recorded pIC50 for cyclin H-Cdk7 (Homo sapiens) in what follows.
FYI, pIC50 means -log10 of a concentration in mol per litre.

Worked examples, 4 molecules total:
Cc1cc(-c2cnc(Nc3cnc(CN4CC[C@@H](O)C4)cn3)s2)nc(Sc2ccccc2Cl)n1
6.00
Cc1cc(-c2cnc(Nc3cnc(CNC(C)C)cn3)s2)nc(Sc2ccccc2Cl)n1
6.25
Cc1cc(-c2cnc(Nc3cnc(CN4CCN(C)CC4)cn3)s2)nc(Sc2ccccc2Cl)n1
6.55
Cc1cc(-c2cnc(Nc3ccc(CN4CCC[C@H]4CO)cn3)s2)nc(NC2CCCCC2)n1
5.92

The record that follows has no pIC50 shown yet.
Lookup: Fill in the recorded pIC50 for this molecule, with cyclin H-Cdk7 (Homo sapiens) as test system: `Cc1cc(-c2cnc(Nc3cnc(CN4CCC[C@H]4CO)cn3)s2)nc(Sc2ccccc2Cl)n1`
Sequence (P50613 whole entry): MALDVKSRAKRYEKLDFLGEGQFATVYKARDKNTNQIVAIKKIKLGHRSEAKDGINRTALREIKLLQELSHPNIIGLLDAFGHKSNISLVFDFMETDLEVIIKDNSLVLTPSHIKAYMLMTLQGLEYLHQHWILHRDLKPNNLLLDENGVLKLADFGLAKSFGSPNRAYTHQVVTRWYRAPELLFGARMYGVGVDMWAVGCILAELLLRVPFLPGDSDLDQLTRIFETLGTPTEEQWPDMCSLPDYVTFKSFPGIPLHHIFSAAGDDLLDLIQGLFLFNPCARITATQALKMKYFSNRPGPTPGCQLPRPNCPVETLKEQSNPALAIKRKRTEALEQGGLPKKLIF
Sequence (P51946 whole entry partner): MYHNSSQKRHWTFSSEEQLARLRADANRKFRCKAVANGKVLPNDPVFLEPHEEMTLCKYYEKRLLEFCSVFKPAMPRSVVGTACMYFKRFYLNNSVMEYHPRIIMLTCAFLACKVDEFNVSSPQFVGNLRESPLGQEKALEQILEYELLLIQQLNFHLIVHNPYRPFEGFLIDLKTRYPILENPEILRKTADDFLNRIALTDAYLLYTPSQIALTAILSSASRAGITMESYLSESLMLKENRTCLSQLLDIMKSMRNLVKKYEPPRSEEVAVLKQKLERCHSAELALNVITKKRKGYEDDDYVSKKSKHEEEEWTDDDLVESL
Found: 6.31

---

- target.or.test.system: UniProtKB P24941
pIC50: −log10 of the molar value.
# binarize pIC50: threshold 6 inclusive, high side True, low side False

Past entries and their recorded results:
Cc1cc(-c2cnc(Nc3cnc(CN4CCN(C)CC4)cn3)s2)nc(OC2CCCCC2)n1 [Example 1]
False
CC(=O)N1CCN(Cc2ccc(Nc3ncc(-c4cc(C)nc(OC5CCCCC5)n4)s3)nc2)CC1 [Example 125]
False
Cc1cc(-c2cnc(Nc3ccc(CN4CCC[C@H]4CO)cn3)s2)nc(NC2CCCCC2)n1 [Example 137]
False

Now take the following compound into account.
Lookup: // inclusive: pIC50 at least 6? input: Cc1cc(-c2cnc(Nc3cnc(CNC(C)C)cn3)s2)nc(SC2CCCCC2)n1 [Example 96]
Found: True

---

- target.or.test.system: cyclin D2-Cdk6 (Homo sapiens, UniProt Q00534)
- Sequence (Q00534 whole entry): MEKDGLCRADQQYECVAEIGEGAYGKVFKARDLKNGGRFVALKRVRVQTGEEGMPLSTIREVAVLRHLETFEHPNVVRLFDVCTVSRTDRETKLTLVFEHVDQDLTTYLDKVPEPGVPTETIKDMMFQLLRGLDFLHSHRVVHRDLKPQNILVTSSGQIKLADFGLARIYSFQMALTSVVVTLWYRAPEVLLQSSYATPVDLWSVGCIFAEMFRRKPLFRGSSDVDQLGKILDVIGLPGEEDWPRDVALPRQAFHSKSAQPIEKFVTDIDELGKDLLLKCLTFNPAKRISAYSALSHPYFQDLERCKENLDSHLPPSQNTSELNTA
- Sequence (P30279 whole entry partner): as the sequence (P30279 whole entry partner) above
- test.summary: Cdk6 inhibitory action: cyclin D2-Cdk6 kinase activity
- study.conditions: cyclin D2-Cdk6, 50 μM ATP
pIC50: −log10 of the molar value.
# binarize pIC50: threshold 8 inclusive, high side TRUE, low side FALSE

Lookup: // inclusive: pIC50 at least 8? input: `Cc1cc(-c2cnc(Nc3cnc(CN4CCN(C)CC4)cn3)s2)nc(Sc2ccccc2Cl)n1`
Found: FALSE

Lookup: // inclusive: pIC50 at least 8? input: `Cc1cc(-c2cnc(Nc3ccc(CN4CCC[C@H]4CO)cn3)s2)nc(NC2CCCCC2)n1`
Found: FALSE

Lookup: // inclusive: pIC50 at least 8? input: `Cc1cc(-c2cnc(Nc3cnc(CN4CCN(C)CC4)cn3)s2)nc(NC2CCCCC2)n1`
Found: TRUE

---

Please consider the recorded IC50 for p35-Cdk5 (Homo sapiens, UniProt Q00535) in what follows.
Just the number in nM, nothing appended.

Cc1cc(-c2cnc(Nc3cnc(CNCCO)cn3)s2)nc(SC2CCCCC2)n1
2400

The record that follows has no IC50 shown yet.
Lookup: Fill in the recorded IC50 for this molecule, with p35-Cdk5 (Homo sapiens, UniProt Q00535) as test system: Cc1cc(-c2cnc(Nc3cnc(CN4CCC(N(C)C)C4)cn3)s2)nc(OC2CCCCC2)n1 (centres unmarked)
Sequence (Q00535 whole entry): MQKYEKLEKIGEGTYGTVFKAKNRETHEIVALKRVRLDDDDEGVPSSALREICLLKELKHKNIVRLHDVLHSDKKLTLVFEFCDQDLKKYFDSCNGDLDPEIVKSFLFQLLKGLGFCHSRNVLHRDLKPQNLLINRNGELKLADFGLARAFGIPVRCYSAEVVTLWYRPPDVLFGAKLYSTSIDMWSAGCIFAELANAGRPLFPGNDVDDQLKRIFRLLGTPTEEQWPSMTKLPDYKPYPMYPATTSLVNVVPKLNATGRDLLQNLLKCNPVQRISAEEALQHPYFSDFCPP
Sequence (Q15078 whole entry partner): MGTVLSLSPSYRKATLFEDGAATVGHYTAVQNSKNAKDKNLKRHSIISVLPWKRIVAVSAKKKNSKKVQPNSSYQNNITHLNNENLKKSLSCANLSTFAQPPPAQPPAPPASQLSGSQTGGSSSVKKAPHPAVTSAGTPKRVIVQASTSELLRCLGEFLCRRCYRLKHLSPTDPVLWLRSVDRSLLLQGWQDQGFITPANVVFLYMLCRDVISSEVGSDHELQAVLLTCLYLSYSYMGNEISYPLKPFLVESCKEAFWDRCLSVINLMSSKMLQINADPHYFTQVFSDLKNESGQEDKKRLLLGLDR
Found: 2600

---

Please consider the recorded IC50 for cyclin B-Cdk1 (Homo sapiens) in what follows.
Just the number in nM, nothing appended.

Worked examples, 5 compounds total:
Cc1cc(-c2cnc(Nc3cnc(CN4CCN(C)CC4)cn3)s2)nc(Sc2ccccc2Cl)n1
430
Cc1cc(-c2cnc(Nc3cnc(CN4CCC(N(C)C)C4)cn3)s2)nc(SC2CCCCC2)n1 (stereo not drawn)
920
Cc1cc(-c2cnc(Nc3cnc(CN4CCN(C)CC4)cn3)s2)nc(OC2CCCCC2)n1
600
Cc1cc(-c2cnc(Nc3cnc(CN4CCN(C)CC4)cn3)s2)nc(NC2CCCCC2)n1
750
Cc1cc(-c2cnc(Nc3cnc(CN4CCCC4)cn3)s2)nc(SC2CCCCC2)n1
870

The record that follows has no IC50 shown yet.
Lookup: Query: IC50; subject: `Cc1cc(-c2cnc(Nc3cnc(CNC(C)C)cn3)s2)nc(SC2CCCCC2)n1`
Found: 560

---

Recorded measurements of pIC50, one per entry
- target.or.test.system: cyclin D2-Cdk4 (Homo sapiens, UniProt P11802)
- Construct: made in house; host or cells: insect cell Sf9 (baculovirus)
- test.summary: Cdk4 inhibitory action: cyclin D2-Cdk4 kinase activity, 33P-ATP, RB peptide substrate
- Assay type: biochemical
- study.conditions: cyclin D2-Cdk4, 50 μM ATP
FYI, pIC50 means -log10 of a concentration in mol per litre.

Worked examples, 7 molecules total:
Cc1cc(-c2cnc(Nc3cnc(CNC(C)C)cn3)s2)nc(Sc2ccccc2Cl)n1
8.08
Cc1cc(-c2cnc(Nc3cnc(CN4CCC[C@H]4CO)cn3)s2)nc(Sc2ccccc2Cl)n1
8.00
CCNCc1cnc(Nc2ncc(-c3cc(C)nc(NC4CCCCC4)n3)s2)cn1
8.26
Cc1cc(-c2cnc(Nc3cnc(CN4CCC(N(C)C)C4)cn3)s2)nc(OC2CCCCC2)n1 (centres unmarked)
8.22
Cc1cc(-c2cnc(Nc3cnc(CNCCO)cn3)s2)nc(SC2CCCCC2)n1
8.22
Cc1cc(-c2cnc(Nc3cnc(CNC(C)C)cn3)s2)nc(SC2CCCCC2)n1
8.24
Cc1cc(-c2cnc(Nc3cnc(CN4CCN(C)CC4)cn3)s2)nc(NC2CCCCC2)n1
8.42

The record that follows has no pIC50 shown yet.
Lookup: Query: pIC50; subject: `Cc1cc(-c2cnc(Nc3cnc(CN4CCCC4)cn3)s2)nc(Sc2ccccc2Cl)n1`
Found: 7.89
